- Tested on: LNCaP
- assay.notes: MTT proliferation assay, LNCaP
- Type: cell-based
- conditions.used: Homo sapiens, Prostate, 120 h of exposure
quantity.name: IC50

Examples from the recorded data:
- compound: "COc1ccc([C@H]2c3ccc(O)c(C)c3OC[C@H]2c2ccc(O)cc2)cc1C"
  quantity.name: "IC50"
  result: "1600 to 10000 nM"
- compound: "COc1ccc([C@@H]2c3ccc(O)c(C)c3OC[C@@H]2c2ccc(O)cc2)cc1C"
  quantity.name: "IC50"
  result: "≥ 10000 nM"
- compound: "Cc1cc(C2c3ccc(O)c(C)c3OCC2c2ccc(O)cc2)ccc1O (centres unmarked)"
  quantity.name: "IC50"
  result: "510 to 1500 nM"
- compound: "Cc1c(O)ccc2c1OC[C@@H](c1ccc(O)cc1)[C@H]2c1ccc(O)cc1"
  quantity.name: "IC50"
  result: "≤ 150 nM"

response.value for Cc1c(O)ccc2c1OCC(c1ccc(O)cc1)C2c1ccc(O)cc1 (centres unmarked) (field: IC50) = 150 to 500 nM

response.value for Oc1ccc([C@H]2c3ccc(O)cc3OC[C@H]2c2ccc(O)cc2)cc1 (field: IC50) = 150 to 500 nM

response.value for COc1ccc(C2c3ccc(O)c(C)c3OCC2c2ccc(O)cc2)cc1C (centres unmarked) (field: IC50) = 1600 to 10000 nM

response.value for Cc1c(O)ccc2c1OC[C@H](c1ccc(O)cc1)[C@@H]2c1ccc(O)cc1 (field: IC50) = ≥ 10000 nM

====

- Test system: SK-Hep-1
- assay.notes: MTT proliferation assay, SK-Hep-1
- Assay type: cell-based, human
- conditions.used: Homo sapiens, SK-HEP1; Liver, SK-Hep-1, 120 h of exposure
pIC50: −log10 of the molar value.
We begin with a simple list: items and their reported pIC50.

- compound: "Cc1c(O)ccc2c1OC[C@@H](c1ccc(O)cc1)[C@H]2c1ccc(O)cc1"
  tested.target: "SK-Hep-1"
  result: "≥ 6.82"
- compound: "Cc1c(O)ccc2c1OC[C@H](c1ccc(O)cc1)[C@@H]2c1ccc(O)cc1"
  tested.target: "SK-Hep-1"
  result: "≤ 5.00"
- compound: "Cc1c(O)ccc2c1OCC(c1ccc(O)cc1)C2c1ccc(O)cc1 (centres unmarked)"
  tested.target: "SK-Hep-1"
  result: "6.30 to 6.82"
- compound: "COc1ccc([C@H]2c3ccc(O)c(C)c3OC[C@H]2c2ccc(O)cc2)cc1C"
  tested.target: "SK-Hep-1"
  result: "5.00 to 5.80"
- compound: "COc1ccc([C@@H]2c3ccc(O)c(C)c3OC[C@@H]2c2ccc(O)cc2)cc1C"
  tested.target: "SK-Hep-1"
  result: "≤ 5.00"

response.value for COc1ccc(C2c3ccc(O)c(C)c3OCC2c2ccc(O)cc2)cc1C (centres unmarked) (field: pIC50) = 5.00 to 5.80

response.value for Oc1ccc([C@H]2c3ccc(O)cc3OC[C@H]2c2ccc(O)cc2)cc1 (field: pIC50) = 6.30 to 6.82

response.value for Cc1cc(C2c3ccc(O)c(C)c3OCC2c2ccc(O)cc2)ccc1O (centres unmarked) (field: pIC50) = 6.30 to 6.82

====

- System: A2780
- assay.notes: MTT proliferation assay, A2780
- Format: cell-based
- conditions.used: Ovarian, A2780, 120 h of exposure
quantity.name: IC50

- compound: "Cc1cc([C@H]2c3ccc(O)c(C)c3OC[C@H]2c2ccc(O)cc2)ccc1O (relative stereo) [l-6]"
  quantity.name: "IC50"
  result: "≥ 10000 nM"

Then this compound:
response.value for Cc1cc([C@H]2c3ccc(O)c(C)c3OC[C@H]2c2ccc(O)cc2)ccc1O (relative stereo) [d-6] (field: IC50) = 150 to 500 nM
